# Tested system: Phosphatidylinositol 4,5-bisphosphate 3-kinase catalytic subunit gamma isoform (Homo sapiens, UniProt P48736)
# Sequence (P48736 whole entry, canonical isoform): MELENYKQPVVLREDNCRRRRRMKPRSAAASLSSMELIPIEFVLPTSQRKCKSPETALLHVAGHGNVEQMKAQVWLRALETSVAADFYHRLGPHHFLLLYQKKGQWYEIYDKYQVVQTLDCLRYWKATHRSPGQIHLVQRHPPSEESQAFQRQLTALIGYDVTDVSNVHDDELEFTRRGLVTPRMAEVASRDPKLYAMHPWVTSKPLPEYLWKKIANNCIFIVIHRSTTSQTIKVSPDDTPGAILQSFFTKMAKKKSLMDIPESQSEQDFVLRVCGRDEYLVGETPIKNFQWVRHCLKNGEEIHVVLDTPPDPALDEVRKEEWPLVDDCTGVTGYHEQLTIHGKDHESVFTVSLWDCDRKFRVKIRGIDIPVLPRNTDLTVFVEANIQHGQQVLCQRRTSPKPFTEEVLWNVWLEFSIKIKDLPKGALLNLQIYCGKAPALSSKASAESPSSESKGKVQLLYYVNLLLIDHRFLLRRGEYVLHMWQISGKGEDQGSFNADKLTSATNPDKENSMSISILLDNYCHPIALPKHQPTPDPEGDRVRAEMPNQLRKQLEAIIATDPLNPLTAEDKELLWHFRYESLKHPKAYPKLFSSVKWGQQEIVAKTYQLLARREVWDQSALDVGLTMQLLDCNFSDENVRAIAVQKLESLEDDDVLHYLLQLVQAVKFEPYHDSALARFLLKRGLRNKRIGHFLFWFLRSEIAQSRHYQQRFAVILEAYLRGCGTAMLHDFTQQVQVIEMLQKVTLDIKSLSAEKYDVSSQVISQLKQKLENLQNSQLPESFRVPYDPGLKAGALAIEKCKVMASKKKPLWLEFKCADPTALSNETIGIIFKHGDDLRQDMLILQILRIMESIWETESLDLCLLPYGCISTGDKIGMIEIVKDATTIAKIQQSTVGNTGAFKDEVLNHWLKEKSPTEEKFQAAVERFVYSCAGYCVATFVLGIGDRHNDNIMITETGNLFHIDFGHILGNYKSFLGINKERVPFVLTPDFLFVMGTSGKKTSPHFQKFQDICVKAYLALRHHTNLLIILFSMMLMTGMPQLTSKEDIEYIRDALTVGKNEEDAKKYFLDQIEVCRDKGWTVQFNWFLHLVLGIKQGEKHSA
# Measurement description: Inhibition of PI3Kgamma (unknown origin) using PIP2 as substrate incubated for 1 hr in presence of ATP by ADP-Glo assay
Measured metric: IC50 (nM)
# number only, unit nM dropped from output

COc1ncc(-c2cc(OCCCCCCC(=O)Nc3ccccc3N)c3ncnc(C)c3c2)cc1NS(=O)(=O)c1ccc(F)cc1F ... 1.8

Then there is this compound:
Entry COc1ncc(-c2cc(OCCCc3ccc(C(=O)Nc4ccccc4N)cc3)c3ncnc(C)c3c2)cc1NS(=O)(=O)c1ccc(F)cc1F has what IC50?
15

====

# Measurement description: Tmax in ICR mouse at 60 mg/kg, po measured after 24 hrs by LC-MS/MS analysis
# Assay type: ADME, organism-based
# Experimental setup: in vivo
Measured metric: Tmax (min)
# number only, unit min dropped from output

COc1ncc(-c2cc(OCCCCCCC(=O)Nc3ccccc3N)c3ncnc(C)c3c2)cc1NS(=O)(=O)c1ccc(F)cc1F ... 31.2

Then there is this molecule:
Entry COc1ncc(-c2cc(OCCCc3ccc(C(=O)Nc4ccccc4N)cc3)c3ncnc(C)c3c2)cc1NS(=O)(=O)c1ccc(F)cc1F has what Tmax?
15

====

# Measurement description: Apparent volume of distribution in ICR mouse at 6 mg/kg, iv measured after 24 hrs by LC-MS/MS analysis
# Assay type: ADME, organism-based
# Experimental setup: in vivo
Measured metric: Vz

Entry COc1ncc(-c2cc(OCCCc3ccc(C(=O)Nc4ccccc4N)cc3)c3ncnc(C)c3c2)cc1NS(=O)(=O)c1ccc(F)cc1F has what Vz?
4.27 L/kg

====

pIC50 listing for selected molecules.
# Measurement description: Antiproliferative activity against human MINO cells assessed as reduction in cell viability incubated for 72 hrs by CCK-8 assay
Lab note — pIC50 values are minus log10 of concentrations in M.

Entry Nc1ccc(F)cc1NC(=O)c1ccc(CNC(=O)/C=C/c2cccnc2)cc1 has what pIC50?
5.68

Entry Nc1cc(C(F)(F)F)c(-c2cc(N3CCOCC3)nc(N3CCOCC3)n2)cn1 [BUPARLISIB] has what pIC50?
5.82

Entry COc1ncc(-c2cc(OCCCCCCC(=O)Nc3ccccc3N)c3ncnc(C)c3c2)cc1NS(=O)(=O)c1ccc(F)cc1F has what pIC50?
5.27

Entry COc1ncc(-c2cc(OCCCc3ccc(C(=O)Nc4ccccc4N)cc3)c3ncnc(C)c3c2)cc1NS(=O)(=O)c1ccc(F)cc1F has what pIC50?
5.18

====

# Test system: Friend leukemia cell line
# Measurement description: Antiproliferative activity against mouse Friend leukemia cell line assessed as reduction in cell viability incubated for 72 hrs by CCK-8 assay
# Type: functional, cell-based
IC50 listing for selected compounds.
# number only, unit nM dropped from output

Example entries begin here.
Nc1cc(C(F)(F)F)c(-c2cc(N3CCOCC3)nc(N3CCOCC3)n2)cn1 ... 810
COc1ncc(-c2cc(OCCCCCCC(=O)Nc3ccccc3N)c3ncnc(C)c3c2)cc1NS(=O)(=O)c1ccc(F)cc1F ... 350
Nc1ccc(F)cc1NC(=O)c1ccc(CNC(=O)/C=C/c2cccnc2)cc1 ... 500

Entry COc1ncc(-c2cc(OCCCc3ccc(C(=O)Nc4ccccc4N)cc3)c3ncnc(C)c3c2)cc1NS(=O)(=O)c1ccc(F)cc1F has what IC50?
320
